procedure details: qHTS Assay for Spectroscopic Profiling in 4-MU Spectral Region
measurement context: compound autofluorescence, 340/450 nm, 4-MU equivalents; hits give high values
Among all 59,000 compounds or so, about 6,200 (11%) were called active. Another 9% or so got no clear call; they are omitted. What follows is part of a selection rich in actives, with near analogues and random picks from the rest.
reported metric: max dye-equivalent concentration

>>> observed_measurement("CCOP1(=O)C=C(C(C)(C)C)OC1c1ccc(F)cc1 (stereo unspecified)")
"inactive"
>>> observed_measurement("O=C(CC1N=C2c3ccccc3N=C(SCc3ccccc3Cl)N2C1=O)NCc1ccco1 (stereo unspecified)")
"18 nM (active)"
>>> observed_measurement("Cc1nn(-c2ccccc2)c2c1C(=O)NC(=O)C(C)(C)C2")
"inactive"
>>> observed_measurement("O=c1c2cc3c(=O)n(CC4CCCO4)c(=O)c3cc2c(=O)n1CC1CCCO1 (stereo unspecified)")
"inactive"
>>> observed_measurement("Cc1nn(CC(=O)Nc2ccc3c(c2)nc(CN2CCCCC2)n3C)c(=O)c2ccccc12")
"inactive"
>>> observed_measurement("Nc1nc(SCCOc2ccccc2)n[nH]1")
"inactive"
>>> observed_measurement("CCCn1c(=O)c2[nH]c(-c3ccc(OCC(=O)NCCN)cc3)nc2n(CCC)c1=O")
"inactive"
>>> observed_measurement("Cc1cc(C)nc(SCc2nnc(SCC(=O)OC3CCCCC3)o2)n1")
"inactive"
>>> observed_measurement("Cc1ccc2cc(C#N)c(SCC(=O)NCC3CCCO3)nc2c1C (stereo unspecified)")
"inactive"
>>> observed_measurement("O=C(CSC1=Nc2ccccc2C2=NC(c3ccccc3)C(=O)N12)NCC1CCCO1 (stereo unspecified)")
"750 nM (active)"
>>> observed_measurement("O=C(O)C1CC(=O)N(Cc2cccnc2)C1 (stereo unspecified)")
"inactive"
>>> observed_measurement("c1ccc(CNc2ncncc2-c2cccnc2)cc1")
"inactive"
>>> observed_measurement("COc1cc(OC)c(C(=O)NC2CC(C)(C)NC(C)(C)C2)cc1OC")
"inactive"
>>> observed_measurement("C[N+]1(CCN=C=NC2CCCCC2)CCOCC1")
"inactive"
>>> observed_measurement("Cc1cccc(NC(=O)CSc2nnc(CCCCCNC(=O)OC(C)(C)C)o2)c1C")
"inactive"
>>> observed_measurement("O=C(NC1CCCCC1)c1ccc2c(=O)n(CC3CCCO3)c(=O)[nH]c2c1 (stereo unspecified)")
"16 nM (active)"
>>> observed_measurement("NC1(C(=O)OCc2ccccc2)CCCC1")
"inactive"
>>> observed_measurement("c1ccc(-c2oc3ncnc(N4CCOCC4)c3c2-c2ccccc2)cc1")
"11 nM (active)"
>>> observed_measurement("NS(=O)(=O)c1cc2c(cc1Cl)NC(C(Cl)Cl)NS2(=O)=O (stereo unspecified)")
"6500 nM (active)"
>>> observed_measurement("Cc1cc(C)cc(NC(=O)C2CCN(c3nc(C)cc(C)n3)CC2)c1")
"inactive"
>>> observed_measurement("Cc1c(C)c2cc3c4c(oc3c(C)c2oc1=O)CCCC4")
"30 nM (active)"
>>> observed_measurement("Cc1nc2nc(SCC(=O)NCc3ccco3)nn2c(C)c1Cc1ccccc1")
"inactive"
>>> observed_measurement("Cc1ccccc1OCCC(=O)Nc1c(C)n(C)n(-c2ccccc2)c1=O")
"inactive"
>>> observed_measurement("Cn1c(-c2ccc(F)cc2)cnc1SCC(=O)NCc1ccco1")
"inactive"
>>> observed_measurement("COc1ccccc1CNc1ncncc1-c1cccnc1")
"inactive"
>>> observed_measurement("CC1Cc2ccccc2N1C(=O)CSc1nc2ccccc2o1 (stereo unspecified)")
"inactive"
>>> observed_measurement("O=C(O)CN(Cc1ccco1)S(=O)(=O)c1ccc(F)cc1")
"inactive"
>>> observed_measurement("COc1ccc(OC)c(C(=O)CSc2nnc(-c3cccs3)o2)c1")
"150 nM (active)"
>>> observed_measurement("Cc1cc(C)c(NC(=O)CS(=O)CC(=O)Nc2cccnc2)c(C)c1 (stereo unspecified)")
"inactive"
>>> observed_measurement("O=C1c2ccccc2C(=O)N1CCCSc1ccccc1")
"inactive"
>>> observed_measurement("Nc1nonc1-c1noc(-c2ccc(Br)o2)n1")
"inactive"
>>> observed_measurement("O=C(Nc1ccc2c(c1)OCCO2)c1ccncc1")
"inactive"
>>> observed_measurement("Cn1nnc(NC(=O)CSc2ncn[nH]2)n1")
"inactive"
>>> observed_measurement("O=C(CSc1nnc(-c2ccc(NS(=O)(=O)c3ccccc3)cc2)o1)NCC1CCCO1 (stereo unspecified)")
"inactive"
>>> observed_measurement("Oc1c(C(c2ccccn2)N2CCOCC2)ccc2cccnc12 (stereo unspecified)")
"inactive"
>>> observed_measurement("Cc1ccc(S(=O)(=O)N2CCC(C(=O)OCC(=O)N3CC(=O)Nc4ccccc43)CC2)cc1")
"inactive"
>>> observed_measurement("CCn1c(SCC(=O)Nc2cc(C)c(Cl)cc2OC)nnc1-c1ccco1")
"inactive"
>>> observed_measurement("CN(Cc1ccccc1)c1nc2c(c(=O)[nH]c(=O)n2C)n1CCSc1nc2ccccc2[nH]1")
"inactive"
>>> observed_measurement("Nc1ccc(SCCN2C(=O)c3ccccc3C2=O)cc1")
"inactive"
>>> observed_measurement("O=C1CC(Cc2ccccc2)C(=O)N1c1ccc(Cl)cn1 (stereo unspecified)")
"inactive"
>>> observed_measurement("Cc1cc2c(=O)n(C)c(SCC(=O)c3cc4ccccc4o3)nc2s1")
"inactive"
>>> observed_measurement("Cc1c(NC(=O)C(C)OC(=O)c2cc3c4ccccc4n(C)c3s2)c(=O)n(-c2ccccc2)n1C (stereo unspecified)")
"110 nM (active)"
>>> observed_measurement("CC(=O)N1CCC(C(=O)Nc2nc(-c3ccccc3)ns2)CC1")
"1800 nM (active)"
>>> observed_measurement("COc1ccc(-c2nnc(SCC(=O)c3cccs3)o2)c(OC)c1")
"inactive"
>>> observed_measurement("CC1(c2ccccc2Cl)NC(=O)N(CC(=O)NC(=O)NCc2ccco2)C1=O (stereo unspecified)")
"inactive"
>>> observed_measurement("CCOC(=O)c1sc(N(Cc2ccccc2)C(=O)CN2C(=O)CN(C)C2=O)nc1C")
"inactive"

----------
procedure details: qHTS Assay for Spectroscopic Profiling in 4-MU Spectral Region
measurement context: compound autofluorescence, 340/450 nm, 4-MU equivalents
Excerpt: NIH Molecular Libraries Screening Centers Network [MLSCN] NIH Chemical Genomics Center [NCGC] […] While the most informative fluorescent profiling data set is obtained by performing a full excitation and emission scan of each well by using a monochromator-based plate reader, such an approach is practical only on a very limited scale as scanning each well requires long time. […]
The campaign covered roughly 59,000 compounds. About 6,200 (11%) were called active. About 9% were inconclusive and are not listed. Rule as the data show it: active = max dye-equivalent concentration above about 10 nM; inconclusive = mostly about 1.1 nM to 9.6 nM; inactive = weaker than that. For the sample, actives were picked, then their nearest neighbours and some compounds at random.
Possible outcomes: true (1) = active, false (0) = inactive

>>> class_assignment("CC1=C(C(=O)OC2CCCCC2)C(c2cccnc2)n2ncnc2N1 (stereo unspecified)")
"false (0)"
>>> class_assignment("Cc1noc(C)c1C(=O)OCC(=O)/C=C1\\N(C)c2ccccc2C1(C)C")
"true (1)"
>>> class_assignment("O=C(NC(c1ccccc1)c1ccccc1)N1CCN(CCO)CC1")
"false (0)"
>>> class_assignment("O=C(c1ccc([N+](=O)[O-])cc1)[C@@H](Br)[C@@H](Br)c1ccnc2ccccc12")
"false (0)"
>>> class_assignment("CCSc1nc2c(c(=O)[nH]1)C(c1cccnc1)C(C(=O)OC(C)C)=C(C)N2 (stereo unspecified)")
"true (1)"
>>> class_assignment("Cc1ccc(-c2nc(COC(=O)c3c(C)noc3C)cs2)cc1")
"false (0)"
>>> class_assignment("CCn1c(Cc2ccccc2)nnc1SCc1nc2ccccc2c(=O)[nH]1")
"false (0)"
>>> class_assignment("O=C(CCc1ccccc1)Nc1ccc(NC(=O)C2CC2)nc1")
"false (0)"
>>> class_assignment("COc1ccc(C(CC(=O)O)NC(=O)Cc2ccccc2)cc1 (stereo unspecified)")
"false (0)"
>>> class_assignment("Cc1noc(C)c1C(=O)Nc1ccccn1")
"false (0)"
>>> class_assignment("COc1ccc(OC)c(CNC(=O)C2CCCN(c3nc4ccccc4o3)C2)c1 (stereo unspecified)")
"false (0)"

----------
procedure details: qHTS Assay for Spectroscopic Profiling in 4-MU Spectral Region
measurement context: compound autofluorescence, 340/450 nm, 4-MU equivalents; hits give high values
Hit rate of the full screen: of about 59,000 compounds, about 6,200 (11%) were called active. Another 9% or so got no clear call; they are omitted. The list comes from a sample in which actives are over-represented; it also holds close analogues and randomly drawn compounds.
reported metric: max dye-equivalent concentration

>>> observed_measurement("CCCCn1c(SCc2ncc(-c3ccccc3)o2)nc2cc(S(N)(=O)=O)ccc21")
"inactive"
>>> observed_measurement("CCN1C(=O)C(C(=O)NC(C)c2ccccc2)C2CC1(C)Oc1ccccc12 (stereo unspecified)")
"inactive"
>>> observed_measurement("C#CCN1C(=O)C(O)(CC(=O)c2cc(OC)ccc2OC)c2ccccc21 (stereo unspecified)")
"0.013 µM (active)"
>>> observed_measurement("CC(C)C(=O)N1c2ccccc2NC2=C(C(=O)CCC2)C1c1ccc(N(C)C)cc1 (stereo unspecified)")
"inactive"
>>> observed_measurement("Cn1c(NC(=O)c2ccco2)c(-c2ccccc2Cl)c(=O)c2ccccc21")
"inactive"
>>> observed_measurement("Cc1nc(CNS(=O)(=O)c2cccnc2)cs1")
"inactive"
>>> observed_measurement("O=c1oc2c(CN3CCCCC3)c(O)ccc2c2c1CCCCC2")
"12 µM (active)"
>>> observed_measurement("COC(=O)c1cc(Cl)c(NC(=O)c2ccco2)cc1OC")
"inactive"
>>> observed_measurement("O=C(O)c1ccc(NC(=O)c2cccs2)cc1")
"inactive"
>>> observed_measurement("COc1ccc(N2C(=O)CCC(C(=O)N(C)C3CCCCC3)C2c2ccc(OC)c(OC)c2)cc1 (stereo unspecified)")
"inactive"
>>> observed_measurement("CCCCCn1c(SCCC(C)C)nc2c1c(=O)[nH]c(=O)n2C")
"inactive"
